# procedure-summary: Lipid nanoparticle size and polydispersity index by dynamic light scattering (Malvern Zetasizer)
# Format: physicochemical
# test-parameters: hEPO mRNA LNP, Process A, Cationic Lipid:DMG-PEG2000:Cholesterol:DOPE 40:1.5:28.5:30 mol %, N/P 4

molecule: CCCCCCCCCCCCC(O)CN(CCCOC(=O)N[C@H]1CO[C@H]2[C@@H]1OC[C@@H]2NC(=O)OCCCN(CC(O)CCCCCCCCCCCC)CC(O)CCCCCCCCCCCC)CC(O)CCCCCCCCCCCC (some centres unmarked)
Size (nm): 97 nm
//
molecule: CCCCCCCCCCC(O)CN(CCCC(=O)O[C@H]1CO[C@H]2[C@@H]1OC[C@H]2OC(=O)CCCN(CC(O)CCCCCCCCCC)CC(O)CCCCCCCCCC)CC(O)CCCCCCCCCC (some centres unmarked) [Compound 24]
Size (nm): 88 nm
//
molecule: CCCCCCCCCCCCCCCCC(O)CN(CCCC(=O)O[C@H]1CO[C@H]2[C@@H]1OC[C@H]2OC(=O)CCCN(CC(O)CCCCCCCCCCCCCCCC)CC(O)CCCCCCCCCCCCCCCC)CC(O)CCCCCCCCCCCCCCCC (some centres unmarked)
Size (nm): 106 nm
//
molecule: CCCCCCCCCCC(O)CN(CCCC(=O)O[C@H]1CO[C@H]2[C@@H]1OC[C@H]2OC(=O)CCCN(CC(O)CCCCCCCCCC)CC(O)CCCCCCCCCC)CC(O)CCCCCCCCCC (some centres unmarked) [Compound 29]
Size (nm): 126 nm
//
molecule: CCCCCCCCCCC(O)CN(CCCC(=O)N[C@H]1CO[C@H]2[C@@H]1OC[C@@H]2NC(=O)CCCN(CC(O)CCCCCCCCCC)CC(O)CCCCCCCCCC)CC(O)CCCCCCCCCC (some centres unmarked)
Size (nm): 74 nm

###

# Tested on: BALB/cJ mice
# procedure-summary: Delivery of hEPO mRNA by intramuscular administration of LNPs; serum hEPO by ELISA
# Format: in vivo, Mouse
# test-parameters: Table 4, further lipids; mouse serum 6 hours post IM injection of hEPO mRNA LNP as in example 3
Form field: hEPO 6 Hr (ng/ml) Mean (one value per entry).

compound: CCCCCCCCC(O)CN(CCCCC(=O)N[C@H]1CO[C@H]2[C@@H]1OC[C@@H]2NC(=O)CCCCN(CC(O)CCCCCCCC)CC(O)CCCCCCCC)CC(O)CCCCCCCC (some centres unmarked) [Compound 70]
hEPO 6 Hr (ng/ml) Mean, ng/mL: 47.6
--
compound: CCCCCCCCCCC(O)CN(CCCS[C@H]1CO[C@H]2[C@@H]1OC[C@@H]2SCCCN(CC(O)CCCCCCCCCC)CC(O)CCCCCCCCCC)CC(O)CCCCCCCCCC (some centres unmarked) [Compound 81]
hEPO 6 Hr (ng/ml) Mean, ng/mL: 2.3
--
compound: CCCCCCCCCCCOC(=O)CCCC(O)CN(CCCCC(=O)O[C@@H]1CO[C@H]2[C@@H]1OC[C@@H]2OC(=O)CCCN(CC(O)CCCCCC(=O)OC(CCCCCCCC)CCCCCCCC)CC(O)CCCC(=O)OCCCCCCCCCCC)CC(O)CCCCCC(=O)OC(CCCCCCCC)CCCCCCCC (some centres unmarked) [Compound 66]
hEPO 6 Hr (ng/ml) Mean, ng/mL: 23.2
--
compound: CCCCCC/C=C\COC(=O)CCCCCCCN(CCCCCCCC(=O)OC/C=C\CCCCCC)CCCCSC(=O)N[C@@H]1CO[C@H]2[C@@H]1OC[C@H]2NC(=O)SCCCCN(CCCCCCCC(=O)OC/C=C\CCCCCC)CCCCCCCC(=O)OC/C=C\CCCCCC [Compound 85]
hEPO 6 Hr (ng/ml) Mean, ng/mL: 23.8
--
compound: CCCCCCCCCCCCCCC(O)CN(CCCC(=O)O[C@@H]1CO[C@H]2[C@@H]1OC[C@@H]2OC(=O)CCCCN(CC(O)CCCCCCCCCC)CC(O)CCCCCCCCCC)CC(O)CCCCCCCCCCCCCC (some centres unmarked) [Compound 63]
hEPO 6 Hr (ng/ml) Mean, ng/mL: 60.5

Origin of the recorded values: patent US20260224486A1
